B1: CDC25A (parent)
chain: KPIVPTDGKRVIVVFHCEFSSERG

Variants of: B1
assay remarks: protein stability index of a GFP-peptide fusion (GPS, HEK-293T) (PSI 1-6); higher = more stable;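 also: lentivirally expressed fusions sorted by FACS into six bins by GFP to DsRed ratio, PSI derived from sequencing read proportions per bin multiplied by bin number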
conditions: c terminus: a fixed tail appended
protein stability index values by entry

So what's the measured protein stability index for this one? SPIVPTDGKRVIVVFHCEFSSERG [K1S] 2.04

So what's the measured protein stability index for this one? KPIVPTDGKEVIVVFHCEFSSERG [R10E] 2.96

So what's the measured protein stability index for this one? KPIVPTDGKRVIVVRHCEFSSERG [F15R] 3.06

So what's the measured protein stability index for this one? KPIVPTDNKRVIVVFHCEFSSERG [G8N] 1.95
